Please go through the items and note down their pIC50.
target: C-Raf TR (truncated C-Raf protein, Δ1-324 deletion mutant) (Homo sapiens (Human)); conditions: truncated C-Raf approximately 4 nM, ATP 1 uM, 60 min pre-incubation, 1 hour reaction
Answers are plain numbers, as −log10 of the molar value.

Reference set, count: 4
{"INPUT SMILES": "Cc1ccc(C(=O)Nc2cccc(C(F)(F)F)c2)cc1-c1ccnc(N2CCOCC2)c1", "pIC50": 9.29}
{"INPUT SMILES": "Cc1ccc(NC(=O)c2cccc(C(F)(F)F)c2)cc1-c1cn(C)c(=O)c(N2CCOCC2)n1", "pIC50": 9.57}
{"INPUT SMILES": "Cc1ccc(NC(=O)c2cccc(C(F)(F)F)c2)cc1-c1csc(N2CCOCC2)n1", "pIC50": 8.89}
{"INPUT SMILES": "Cc1ccc(NC(=O)c2cccc(C(F)(F)F)c2)cc1-c1cncc(N2CCOCC2)n1", "pIC50": 9.51}

Please look at the following molecule next.
Give the measured pIC50 for Cc1ccc(C(=O)Nc2cccc(C(F)(F)F)c2)cc1-c1nc(N2CCOCC2)cc(N2CCOCC2)n1
9.10

====

target: b-Raf (V600E) (Homo sapiens (Human), UniProt P15056, V600E); details: read-out: b-Raf IC-50; AlphaScreen, 60 min pre-incubation, reaction 3 hours at room temperature
Sequence (P15056 whole entry V600E): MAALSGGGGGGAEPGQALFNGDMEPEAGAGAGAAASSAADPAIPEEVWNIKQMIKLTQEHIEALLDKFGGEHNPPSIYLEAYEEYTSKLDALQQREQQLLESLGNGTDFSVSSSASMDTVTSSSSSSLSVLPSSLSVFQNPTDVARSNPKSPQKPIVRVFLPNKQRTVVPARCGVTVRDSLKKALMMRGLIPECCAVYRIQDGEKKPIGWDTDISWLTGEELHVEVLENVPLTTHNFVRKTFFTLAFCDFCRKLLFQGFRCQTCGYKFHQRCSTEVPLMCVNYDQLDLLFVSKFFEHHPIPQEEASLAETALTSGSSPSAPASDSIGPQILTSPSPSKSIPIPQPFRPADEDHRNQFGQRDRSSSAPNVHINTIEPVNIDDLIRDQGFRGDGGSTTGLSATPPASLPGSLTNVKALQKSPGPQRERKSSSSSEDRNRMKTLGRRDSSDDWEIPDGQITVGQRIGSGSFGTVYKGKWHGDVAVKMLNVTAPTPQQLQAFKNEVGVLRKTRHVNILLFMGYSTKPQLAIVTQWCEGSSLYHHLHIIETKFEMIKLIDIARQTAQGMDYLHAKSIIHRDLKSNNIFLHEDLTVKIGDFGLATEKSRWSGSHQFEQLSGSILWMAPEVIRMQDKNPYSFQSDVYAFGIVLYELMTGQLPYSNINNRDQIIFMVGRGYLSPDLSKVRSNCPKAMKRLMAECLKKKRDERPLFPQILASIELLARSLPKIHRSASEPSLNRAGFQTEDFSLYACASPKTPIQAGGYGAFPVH
Please go through the items and note down their pIC50.
Numbers only, as −log10 of the molar value.

Reference set, count: 5
{"COMPOUND": "CCn1cc(C(=O)Nc2ccc(C)c(-c3cc(N4CCOCC4)nc(N4CCOCC4)c3)c2)cc(C(F)(F)F)c1=O [Example 1114]", "ATTRIBUTE MEASURED": "pIC50", "EXPERIMENTAL VALUE": 8.50}
{"COMPOUND": "CCn1cc(C(=O)Nc2ccc(C)c(-c3cc(N4CCOCC4)nc(N4CC(O)C4)c3)c2)cc(C(F)(F)F)c1=O [Example 1061]", "ATTRIBUTE MEASURED": "pIC50", "EXPERIMENTAL VALUE": 8.52}
{"COMPOUND": "Cc1ncc(NC(=O)c2cccc(C(C)(C)S(C)(=O)=O)c2)cc1-c1cc(N2CCOCC2)nc(N2CC(O)C2)c1 [Example 1091]", "ATTRIBUTE MEASURED": "pIC50", "EXPERIMENTAL VALUE": 5.95}
{"COMPOUND": "Cc1ncc(NC(=O)c2ccnc(C(F)F)c2)cc1-c1cc(N2CCOCC2)nc(N2CCOCC2)c1 [Example 1122]", "ATTRIBUTE MEASURED": "pIC50", "EXPERIMENTAL VALUE": 8.48}
{"COMPOUND": "Cc1ncc(NC(=O)c2ccnc(C(C)C)c2)cc1-c1ccnc(N2CCOCC2)c1 [Example 1136]", "ATTRIBUTE MEASURED": "pIC50", "EXPERIMENTAL VALUE": 8.30}

Go through the items and report each one's pIC50.
1. Cc1ccc(NC(=O)c2ccnc(C3CC3)c2)cc1-c1cc(N2CCOCC2)nc(N2CC(O)C2)c1 [Example 1068]
2. Cc1ccc(NC(=O)c2ccnc(C3(C#N)CC3)c2)cc1-c1cc(NCCO)nc(N2CCOCC2)c1F [Example 1011]
3. Cc1ncc(NC(=O)c2cc(C(C)(C)C#N)ccn2)cc1-c1cnc(OCCO)c(N2CCOCC2)c1 [Example 973]
4. Cc1ncc(NC(=O)c2cccc(S(C)(=O)=O)c2)cc1-c1cnc(OC2CCOCC2)c(N2CCOCC2)c1 [Example 937]
5. Cc1ncc(NC(=O)c2ccnc(C(C)(F)F)c2)cc1-c1cc(NCCO)nc(N2CCOC[C@H]2C)c1 [Example 1139]
6. CC(F)(F)c1cc(C(=O)Nc2c[nH]c(=O)c(-c3ccnc(N4CCOCC4)c3)c2)ccn1 [Example 1171]

9.14
7.61
7.80
8.34
7.84
4.60

====

Please go through the items and note down their log10 IC50.
target: b-Raf (V600E) (Homo sapiens (Human), UniProt P15056, V600E); conditions: read-out: b-Raf IC-50; Table 2; AlphaScreen, 3 hours reaction
Parameter value (number): base-10 log of IC50 in nM.

Reference set, count: 6
{"INPUT SMILES": "CCOc1ncc(-c2cc(NC(=O)c3cccc(S(C)(=O)=O)c3)cnc2C)cc1N1CCOCC1", "log10 IC50": 0.59}
{"INPUT SMILES": "Cc1ncc(NC(=O)c2cccc(C(F)(F)F)c2)cc1-c1cnc(OCCO)c(N2CCOCC2)c1", "log10 IC50": 0.48}
{"INPUT SMILES": "Cc1ccc(NC(=O)c2cccc(C(F)(F)F)c2)cc1-c1cc(N2CCS(=O)(=O)CC2)nc(N2CCOCC2)n1", "log10 IC50": 0.11}
{"INPUT SMILES": "Cc1ncc(NC(=O)c2cccc(C(F)F)c2)cc1-c1cc(N2CCOCC2)c(=O)n(C)c1", "log10 IC50": 0.56}
{"INPUT SMILES": "Cc1ccc(NC(=O)c2ccnc(C3COC3)c2)cc1-c1cc(N2CCOCC2)c(=O)n(C)c1", "log10 IC50": 0.59}
{"INPUT SMILES": "CCOc1ncc(-c2cc(NC(=O)c3cnnc(C(F)(F)F)c3)cnc2C)cc1N1CCOC[C@H]1C", "log10 IC50": 2.30}

Please look at the following compound next.
Give the measured log10 IC50 for COC(=O)NCCn1cc(-c2cc(NC(=O)c3cccc(C(F)(F)F)c3)cnc2C)cc(N2CCOCC2)c1=O
2.00

====

biological target: b-Raf (V600E) (Homo sapiens (Human), UniProt P15056, V600E); settings: read-out: b-Raf IC-50; Table 2; AlphaScreen, 3 hours reaction
Please go through the items and note down their IC50.
Put down the number, then write its unit next to it.

{"COMPOUND": "Cc1ccc(NC(=O)c2ccnc(C(C)(C)C#N)c2)cc1-c1cc(N2CCOCC2)c(=O)n(CC2(C)COC2)c1 [Example 338]", "EXPERIMENTAL VALUE": "9000 nM"}
{"COMPOUND": "Cc1ncc(NC(=O)c2ccnc(C(C)(C)F)c2)cc1-c1cnc(OCCO)c(N2CCOCC2)c1 [Example 299]", "EXPERIMENTAL VALUE": "6.9 nM"}
{"COMPOUND": "Cc1ncc(NC(=O)c2ccnc(C(C)(F)F)c2)cc1-c1cnc(N(C)C)c(N2CCOCC2)c1 [Example 267]", "EXPERIMENTAL VALUE": "1.1 nM"}
{"COMPOUND": "Cc1cc(C(=O)Nc2ccc(C)c(-c3cc(N4CCOCC4)c(=O)n(C)c3)c2)n(C)n1 [Example 381]", "EXPERIMENTAL VALUE": "100 nM"}
{"COMPOUND": "Cc1ncc(NC(=O)c2ccnc(C(F)(F)F)c2)cc1-c1cnc(Cl)c(N2CCOCC2)c1 [Example 291]", "EXPERIMENTAL VALUE": "2.3 nM"}
{"COMPOUND": "Cc1cc(C(=O)Nc2cnc(C)c(-c3cc(N4CCOCC4)c(=O)n(C)c3)c2)n(C)n1 [Example 376]", "EXPERIMENTAL VALUE": "2800 nM"}

Go through the items and report each one's IC50.
1. CCOc1ncc(-c2cc(NC(=O)c3ccnc(C4COC4)c3)cnc2C)cc1N1CCOCC1 [Example 255]
2. Cc1ccc(NC(=O)c2cnnc(C(C)(C)C#N)c2)cc1-c1cc(N2CCOCC2)c(=O)n(C)c1 [Example 360]

1. 5.6 nM
2. 6 nM

====

target: b-Raf (V600E) (Homo sapiens (Human), UniProt P15056, V600E); conditions: read-out: b-Raf IC-50; AlphaScreen, 60 min pre-incubation, reaction 3 hours at room temperature
Please go through the items and note down their pIC50.
Numbers only, as −log10 of the molar value.

Reference set, count: 6
{"INPUT SMILES": "Cc1ccc(NC(=O)c2ccnc(C(F)(F)F)c2)cc1-c1cc(N2CCOCC2)nc(N2CC(O)C2)c1", "EXPERIMENTAL VALUE": 8.41}
{"INPUT SMILES": "Cc1ncc(NC(=O)c2ccnc(S(C)(=O)=O)c2)cc1-c1cc(NCCO)nc(N2CCOCC2)c1", "EXPERIMENTAL VALUE": 7.64}
{"INPUT SMILES": "Cc1ncc(NC(=O)c2ccnc(C(C)(C)O)c2)cc1-c1cnc(OC(F)F)c(N2CCOCC2)c1", "EXPERIMENTAL VALUE": 7.87}
{"INPUT SMILES": "Cc1ccc(NC(=O)c2ccnc(C(C)(C)O)c2)cc1-c1cc(N2CCOCC2)c(S(C)(=O)=O)nn1", "EXPERIMENTAL VALUE": 8.16}
{"INPUT SMILES": "Cc1ncc(NC(=O)c2ccnc(C(C)(F)F)c2)cc1-c1cc(N2CCOCC2)nc(N2CC(O)C2)c1", "EXPERIMENTAL VALUE": 7.89}
{"INPUT SMILES": "Cc1ncc(NC(=O)c2ccnc(C(C)(C)C)c2)cc1-c1cc(N2CCOCC2)nc(N2CC(O)C2)c1", "EXPERIMENTAL VALUE": 7.15}

Specify pIC50 for Cc1ccc(NC(=O)c2cnnc(C(C)(C)C#N)c2)cc1-c1cc(OC2CCOCC2)nc(N2CCOCC2)c1 , system b-Raf (V600E) (Homo sapiens (Human), UniProt P15056, V600E).
8.67
